- SYSTEM TESTED: NAD(+) hydrolase SARM1 (Homo sapiens)
- Sequence (Q6SZW1 whole entry): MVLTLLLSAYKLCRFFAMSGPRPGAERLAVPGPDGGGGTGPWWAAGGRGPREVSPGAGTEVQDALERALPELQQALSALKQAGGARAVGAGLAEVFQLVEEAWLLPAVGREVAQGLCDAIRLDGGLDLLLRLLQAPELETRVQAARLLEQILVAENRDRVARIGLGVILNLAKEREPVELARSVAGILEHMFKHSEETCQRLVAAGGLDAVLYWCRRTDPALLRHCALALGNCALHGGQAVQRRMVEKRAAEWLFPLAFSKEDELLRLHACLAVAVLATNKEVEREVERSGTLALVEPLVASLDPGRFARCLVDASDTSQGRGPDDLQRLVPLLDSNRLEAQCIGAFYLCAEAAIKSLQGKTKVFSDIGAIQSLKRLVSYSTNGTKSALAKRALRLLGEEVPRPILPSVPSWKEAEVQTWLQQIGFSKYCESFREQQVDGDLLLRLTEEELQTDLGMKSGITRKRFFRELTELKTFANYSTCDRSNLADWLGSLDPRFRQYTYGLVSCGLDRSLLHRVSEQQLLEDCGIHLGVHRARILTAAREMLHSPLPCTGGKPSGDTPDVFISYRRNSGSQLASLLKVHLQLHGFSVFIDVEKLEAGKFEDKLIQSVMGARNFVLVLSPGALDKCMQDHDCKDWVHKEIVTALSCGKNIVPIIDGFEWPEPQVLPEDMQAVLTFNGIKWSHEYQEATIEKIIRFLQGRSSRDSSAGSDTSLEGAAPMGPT
READOUT NAME: IC50

Examples with answers:
Cc1nnc(C23CC(C)CC(C2)N3C(=O)Nc2ccc(Cl)c([C@H]3C[C@H]3C#N)c2)o1 (some centres not stated)	< 1000 nM
CC1CC2CC(C1)N2C(=O)Nc1ccc(Cl)c(C2CC(C)(OCCO)C2)c1 (configuration not stated)	< 1000 nM
CC1CC2CC(C1)N2C(=O)Nc1ccc(Cl)c([C@H]2CC[C@H]2C(F)F)c1 (some centres not stated)	5500 nM

Prompt line: Query: IC50; subject: C[C@@H]1C[C@@H]2C[C@H](C1)N2C(=O)Nc1ccc(Cl)c(N2CC(O)C2)c1
Response line: < 1000 nM

Prompt line: Query: IC50; subject: N#C[C@H]1CC[C@@H]1c1cc(NC(=O)N2C3CC2CC(C(F)(F)F)C3)ccc1C(F)(F)F (some centres not stated)
Response line: < 1000 nM

Prompt line: Query: IC50; subject: Cc1ccc(NC(=O)N2C3CCCC2C3)cc1C1CC(=O)N(C)C1 (configuration not stated)
Response line: 5500 nM

Prompt line: Query: IC50; subject: CC1CC2CC(C1)N2C(=O)Nc1ccc(Cl)c(N2CC[C@H]2C#N)c1 (some centres not stated)
Response line: < 1000 nM

Source listed as BindingDB's records for patent WO2025054369.
